Can you tell me growth at 10 µM for the items I'm about to list?
- test name: Cytotoxicity against human PANC1 cells assessed as cell growth at 10 uM after 72 hrs by Cell Titer 96 cell proliferation assay relative to control
- Assay type: functional
- assay context: PANC-1, 72 h, read-out: Activity
One number for each entry, in %.

Reference set (5 entries):
// growth at 10 µM lookup, key: C=C1C(=O)O[C@H](c2ccccc2)[C@@H]1c1ccccc1 (relative stereo) 12

Entry to check: C=C(C(=O)O)C(O)c1ccc([N+](=O)[O-])cc1 (stereo unspecified) 134

Now consider C=C(C(=O)OC)[C@@H](C)[C@H](O)c1ccccc1 (relative stereo) and answer again. 91

Moving on to the next compound: C=C(C(=O)OC)[C@@H](c1ccccc1)[C@H](O)CCC (relative stereo) 33

Record: C=C(C(=O)OC)C(O)c1ccccc1C(F)(F)F (stereo unspecified) 169

Now for another entry.
Name the reported growth at 10 µM value associated with the compound C=C(C(=O)OC)C(O)c1ccc(F)cc1 (stereo unspecified) 136

###

What growth at 10 µM was measured for each of the following?
- test name: Cytotoxicity against human PANC1 cells assessed as cell growth at 10 uM after 72 hrs by Cell Titer 96 cell proliferation assay relative to control
- Type: functional
- assay context: PANC-1, 72 h, read-out: Activity
Answers are plain numbers, in %.

Previously resolved entries follow.
Item C=C(C(=O)OCc1ccccc1)[C@@H](c1ccccc1)[C@H](O)c1ccccc1 (relative stereo) has what recorded growth at 10 µM? 6

Same question, C=C(C(=O)OCC)C(O)c1ccc(OC)cc1 (centres undefined) this time 108

Same read-out for C=C(C(=O)OC)C(O)c1ccc(C(F)(F)F)cc1 (centres undefined) ? 93

Try this molecule next: C=C(C(C)=O)[C@@H](c1ccccc1)[C@H](O)c1ccccc1 (relative stereo) 105

Again, but for C=C(C(=O)OC)C(O)c1ccc([N+](=O)[O-])cc1 (centres undefined) 138

What do you have for C=C(C(=O)OC)[C@@H](CCC)[C@H](O)c1ccccc1 (relative stereo) ? 104

Here is the next molecule: C=C(C(=O)OC)C(O)c1ccccc1F (centres undefined) 157

What do you get for C=C(C(=O)OC)C(O)c1ccc(C#N)cc1 (centres undefined) ? 131

Would you kindly repeat that for C=C(C(=O)O)C(O)c1ccccc1 (centres undefined) ? 127

Likewise for C=C(C(=O)Oc1ccccc1)[C@@H](c1ccccc1)[C@H](O)c1ccccc1 (relative stereo) ? 9

Please look at the items below and tell me growth at 10 µM for each one, in order.
1. C=C1C(=O)OC1c1ccc(C#N)cc1 (centres undefined)
2. C=C(C(=O)O)C(O)c1ccc(C#N)cc1 (centres undefined)
3. C=C(C(=O)OC)C(O)c1c(F)c(F)c(F)c(F)c1F (centres undefined)
4. C=C(C(=O)OC)[C@@H](c1ccccc1)[C@H](O)c1ccccc1 (relative stereo)
5. C=C(CC(O)c1ccccc1)C(=O)OC (centres undefined)
6. C=C(C(=O)OC)C(C)CO (centres undefined)
7. C=C(C(=O)OC)[C@@H](c1ccccc1)[C@H](O)Cc1ccccc1 (relative stereo)
8. C=C1C(=O)OC1c1ccc([N+](=O)[O-])cc1 (centres undefined)

[102, 108, 147, 14, 67, 120, 14, 136]

Dear colleague, could you send me growth at 10 µM for each of the items below? Thanks.
1. C=C1C(=O)O[C@@H]2C3O[C@]3(C)CC/C=C(\C)CC[C@@H]12 (some centres undefined)
2. C=C(C(=O)O)C(O)c1ccc(C(F)(F)F)cc1 (centres undefined)

[22, 129]

Below are some molecules; for each one, tell me its growth at 10 µM.
1. C=C(C(=O)OC)C(CO)C1CCCCC1 (centres undefined)
2. C=C(C(=O)OCC)[C@@H](c1ccccc1)[C@H](O)c1ccccc1 (relative stereo)
3. O=C1O[C@H](c2ccccc2)[C@H](c2ccccc2)/C1=C\c1ccccc1 (relative stereo)
4. C=C(C[C@@H](c1ccccc1)[C@H](O)c1ccccc1)C(=O)OC (relative stereo)

1: 164; 2: 5; 3: 105; 4: 124
